Recorded TGI, one value per entry.
tested on: SW-620 colon; assay: NCI tumour cell line growth inhibition, 48 h

# compound, TGI
rows = [
    ("CN(C)CCCSc1nc2c(c(=N)n1-c1ccccc1)c(=S)n(-c1ccccc1)c(=S)n2-c1ccccc1", "3.65 µM"),
    ("C/C(=N\\NC(=S)N(C)C)c1nc2ncccc2[nH]1", "> 100 µM"),
    ("CC(=O)OCC1OC(n2c3c(cc(C#N)c2=S)CCC3)C(OC(C)=O)C(OC(C)=O)C1OC(C)=O (stereo not given)", "> 100 µM"),
    ("Cc1cc(O)cc(C)c1/C=C/c1cncc(C(N)=O)c1", "> 25 µM"),
    ("COC(=O)C1=COC(OC2OC(CO)C(O)C(O)C2O)C2C3CN4CCc5c([nH]c6ccccc56)C4(CC12)O3 (stereo not given)", "> 100 µM"),
]

###

system: K-562 leukemia; assay: NCI tumour cell line growth inhibition, 48 h; in the data active = GI50 below about 0.43 µM; inactive = the rest
Classes used: label 1 (active), label 0 (inactive)

# molecule, discrete-label
rows = [
    ("COc1cccc(/C=N/NC(=O)c2ccccc2N2CCCC2)c1O", "label 0"),
    ("C[C@]12CC[C@@H]3c4cc(OC(F)F)c(OS(N)(=O)=O)cc4CC[C@H]3[C@@H]1CC[C@@H]2OS(N)(=O)=O", "label 1"),
    ("COc1ccc2c(c1)oc(=O)c1cc(OC)ccc12", "label 0"),
    ("NC1CCCCC1N.O=[Se]([O-])[O-].[Pt+4] (stereo not given)", "label 1"),
    ("CCCCCCCCCCCC(=O)N1CCN(C(C)=O)CC1", "label 0"),
]

###

Recorded TGI, one value per entry.
tested on: ACHN renal; experiment: NCI tumour cell line growth inhibition, 48 h
Where a SMILES comes first, the peptide text is derived from it. [ ]: non-standard residue; d: D form. Phe(4-NO2) = N[CH](Cc1ccc([N+](=O)[O-])cc1)C(=O)O
measurement-type: TGI

# molecule, measurement
measured = [
    ("O=C(CC(C(=O)c1cccs1)c1ccsc1)c1ccccc1 (stereo not given)", "> 100 µM"),
    ("Cn1nc(C(F)(F)F)cc1-c1c[nH]c(OCc2ccc(Cl)cc2)c(-c2ccc(Cl)c(C(F)(F)F)c2)c1=O", "4.23 µM"),
    ("O=C(c1nc2ccccc2[nH]c1=O)C(O)c1ccco1 (stereo not given)", "> 100 µM"),
    ("O[C@H]1[C@H](O)[C@@H](O)[C@@]2(O)CC[C@@H]1N2", "> 100 µM"),
    ("COc1ccc(Cn2cc3c(c2-c2ccccc2)CCc2cnoc2-3)cc1OC", "> 100 µM"),
    ("CN(C)CCCNc1ncnc2c1ncn2C1OC(CO)C(O)C1O (stereo not given)", "> 100 µM"),
    ("CN(C)CCCCC(C(=O)CBr)(c1ccccc1)c1ccccc1", "3.03 µM"),
    ("N#Cc1ccc(CSC2=C(c3ccc(Cl)cc3)S/C(=C3\\SC(SCc4ccc(C#N)cc4)=C(c4ccc(Cl)cc4)S3)S2)cc1", "> 100 µM"),
    ("COc1cc(O)c2c(c1)O[C@@H]1OCC[C@H]21", "> 100 µM"),
    ("CC(=O)C1Cn2c(=O)c3cc4ccccc4cc3c(=O)n2C=C1C (stereo not given)", "> 100 µM"),
    ("C/C(CC(=O)Nc1cc(C)ccc1C)=N/N=C(N)N", "> 100 µM"),
    ("Cc1ccc([N+](=O)[O-])cc1S(=O)(=O)Nc1ccc(C2=NOC(c3cccs3)C2)cc1 (stereo not given)", "46.3 µM"),
    ("CC(=NNC(=S)Nc1cccc(C)c1)c1cccc(C(C)=NNC(=S)Nc2cccc(C)c2)n1", "46.4 µM"),
    ("Cc1ccc(C(c2c(O)c3ccccc3n(-c3ccccc3)c2=O)c2c(O)c3ccccc3n(-c3ccccc3)c2=O)cc1", "> 100 µM"),
    ("O=C(SC1=NCCN1)c1cccc2ccccc12", "> 100 µM"),
    ("COc1ccc2c(O)c(/C=C3\\N=Nc4ccccc43)oc2c1C[C@@H]1CCNC[C@H]1F", "3.41 µM"),
    ("O=C1NC(=O)C(C(=O)C(=O)Nc2ccc(Cl)cc2Cl)C(=O)N1", "> 100 µM"),
    ("Cn1ncc2c(Nc3cccc(Cl)c3)nc(Nc3cccc(Cl)c3)nc21", "29.2 µM"),
    ("CC(NC(=O)C(Cc1ccc([N+](=O)[O-])cc1)NC(=O)C(N)CCCCN)C(=O)NC(Cc1ccc([N+](=O)[O-])cc1)C(N)=O (stereo not given) (H-K[Phe(4-NO2)]A[Phe(4-NO2)]-NH2; configuration not given here)", "> 100 µM"),
    ("CC1(Br)CC2OC3(Br)C=CC(C)(O)C2(CC1=O)C3(C)C (stereo not given)", "> 100 µM"),
    ("CCOC(=O)c1cc2c3c(c(C(C)=O)c(O)c2[nH]1)N(C(C)=O)CC3", "> 100 µM"),
    ("OC[P+](CO)(CO)C12CC3CC(CC(C3)C1)C2", "> 100 µM"),
    ("COc1cc(/C=N\\c2nc(-c3ccc(NS(=O)(=O)c4ccc(Cl)c(OC)c4)cc3)cs2)ccc1O", "> 100 µM"),
    ("COc1cc2c(cc1Cc1cccc(Cl)c1F)c(=O)c(C(=O)O)cn2[C@@H](CO)C(C)C", "20.9 µM"),
    ("CCCCCCCCCCCC(=O)N1CCN(C(C)=O)CC1", "> 100 µM"),
    ("CC1=NNC(=O)C1C1CC(c2c[nH]c3ccccc23)=NN(C(N)=O)C1=O (stereo not given)", "> 100 µM"),
    ("O=C1C=CC(=O)c2c1ccc1c3ccccc3n(-c3ccccc3)c21", "11.1 µM"),
    ("COc1ccc(OC)c(C2CCc3c(cnc4nc(N)nc(N)c34)C2)c1 (stereo not given)", "17.2 µM"),
    ("[Cl][Hg][c]1ccc(Cl)s1", "3.33 µM"),
    ("CCN1C(=O)N(CC)C2C1NN=c1s/c(=C\\c3ccco3)c(=O)n12 (stereo not given)", "> 100 µM"),
    ("Cc1cc(O)cc(C)c1/C=C/c1cncc(C(N)=O)c1", "> 25 µM"),
    ("O=C(Nc1ccc(-n2cc(-c3ccncc3)c(-c3ccc(O)c(Cl)c3)n2)cc1)Nc1ccc(Cl)c(C(F)(F)F)c1", "9.42 µM"),
    ("O=C(OC1CCC2OOC1O2)c1ccc([N+](=O)[O-])cc1 (stereo not given)", "> 100 µM"),
    ("COC(=O)C(C)(C)[C@@H]1OC(=O)N(S(=O)(=O)c2c(C)cc(C)cc2C)[C@H]1C(C)C", "> 100 µM"),
    ("O=c1cc(CSc2c(-c3ccccc3)c(=O)n(-c3ccccc3)c(=S)n2-c2ccccc2)[nH]c(=O)[nH]1", "> 100 µM"),
    ("Cc1ccc(NC(=O)c2cc3ccccc3c(N=Nc3cc(S(=O)(=O)O)ccc3O)c2O)c(C)c1", "23 µM"),
    ("CC1CC/C(=C\\c2ccc(N(C)C)cc2)C2=C1C(c1ccc(N(C)C)cc1)NC(=S)N2 (stereo not given)", "> 100 µM"),
    ("O=C(NNC1=NCCCCN1)Nc1ccc(Cl)cc1", "> 100 µM"),
    ("CN(C)CCCSc1nc2c(c(=N)n1-c1ccccc1)c(=S)n(-c1ccccc1)c(=S)n2-c1ccccc1", "3.22 µM"),
    ("CC(=O)Nc1c(I)c(NC(C)=O)c(I)c(C(=O)O)c1I", "> 100 µM"),
]

###

Recorded TGI, one value per entry.
tested on: UO-31 renal; experiment: NCI tumour cell line growth inhibition, 48 h

# molecule, readout-unit, limit-sign, TGI
rows = [
    ("O=C(O)c1nc2ccc(C(F)(F)F)cc2nc1NCc1ccc(Cl)c(Cl)c1", "µM", "=", 26.2),
    ("CC/C(=C(/c1ccc(O)cc1)c1ccc(OCCN)cc1)c1ccccc1", "µM", "=", 8.57),
    ("CC(C)CC(=O)NC(C(=O)NC(C(=O)NC(CC(C)C)C(O)CC(=O)NC(C)C(=O)NC(CC(C)C)C(O)CC(=O)O)C(C)C)C(C)C (stereo not given)", "µM", ">", 100),
    ("CC(=O)C1Cn2c(=O)c3cc4ccccc4cc3c(=O)n2C=C1C (stereo not given)", "µM", ">", 100),
    ("O=C(O)C(C(=O)O)P(=S)(S)c1ccccc1 (stereo not given)", "µM", ">", 100),
    ("NC1CCCCC1N.O=[Se]([O-])[O-].[Pt+4] (stereo not given)", "µM", "=", 16.7),
    ("CCOC(=O)Nc1nc2ccc(Br)cc2s1", "µM", ">", 50),
    ("COc1ccc(C(O)(c2ccccc2)c2nccc3ccccc23)cc1 (stereo not given)", "µM", ">", 100),
    ("CCN(CC)CCN(C(=Nc1ccccc1)N1CCCCC1)c1ccccc1", "µM", "=", 26.5),
    ("O=C(CCCN1CCC(Nc2ccccc2)(c2nnnn2C2CCCCC2)CC1)c1ccc(F)cc1", "µM", "=", 12.8),
    ("CC(=O)O[C@@H]1C(=O)N(c2ccccc2)[C@@H]1c1cc2ccccc2c2ccccc12", "µM", "=", 87),
    ("Cc1ccc2c(c1)c(Sc1ccc(C(=O)NO)cc1)c1n2CN(C)CC1", "µM", "=", 9.1),
    ("CCC1CCN=C(NS(=O)(=O)c2cc(C)c(Cl)cc2S)N1 (stereo not given)", "µM", "=", 82.4),
    ("Cc1ccc(NC(=O)c2cc3ccccc3c(N=Nc3cc(S(=O)(=O)O)ccc3O)c2O)c(C)c1", "µM", "=", 34.1),
    ("O=C1[C@@H]2C(c3ccccc3[N+](=O)[O-])=[N+](c3ccccc3)O[C@@H]2C(=O)N1c1ccc(Cc2ccc(N3C(=O)[C@H]4C(c5ccccc5[N+](=O)[O-])=[N+](c5ccccc5)O[C@H]4C3=O)cc2)cc1", "µM", ">", 100),
    ("CC(=NNC(=S)Nc1cccc(C)c1)c1cccc(C(C)=NNC(=S)Nc2cccc(C)c2)n1", "µM", "=", 86.3),
    ("Cn1cc(C2=C(c3c4n(c5ccccc35)CCC(CN)C4)C(=O)NC2=O)c2ccccc21 (stereo not given)", "µM", "=", 6.58),
    ("O=C(O)CCc1nc2ccccc2[nH]1", "µM", ">", 100),
    ("C#C/C=C\\CCCCCCCCCCCCCC/C=C\\CCCCC#CC(O)C#CCCCC/C=C\\CCCCCC/C=C/C(O)C#C (stereo not given)", "µM", "=", 37.4),
    ("O=c1c2ccccc2nc(/C=C(\\O)c2ccncc2)n1-c1ccc(Cl)cc1", "µM", ">", 100),
]
